These measurements were taken from patent US10676457B2.

Target: LSD-1 enzyme (Homo sapiens (Human), UniProt O60341)
pIC50: −log10 of the molar value.

{"compound": "CS(=O)(=O)N1CC(CCO)(N2CCC(N[C@@H]3C[C@H]3c3ccccc3)CC2)C1 [Example 93]", "pIC50": "> 7.00"}
